- Tested target: SMARCA2 (Homo sapiens)
- Assay info: SMARCA2 Western blot degradation in MV4-11 cells
- Assay type: cell-based
- Set-up: SMARCA2/SMARCA4 protein degradation selectivity in MV4-11 cells; endogenous in cells; host or cells: MV4-11
- Measurement parameters: MV4-11, MV4-11 cells, 24 h; read-out: SMARCA2 MSD MV411 degradation 24 h: average Dmax %
Measured quantity: Dmax

1) Cc1ncsc1-c1ccc(CNC(=O)[C@@H]2C[C@@H](O)CN2C(=O)[C@@H](NC(=O)C2(F)CC2)C(C)(C)C)c(O[C@H]2CC[C@H](N3CCC(c4cnc(N5CCc6[nH]c7nnc(-c8ccccc8O)cc7c6[C@@H]5C)nc4)CC3)CC2)c1 (single isomer, unassigned)
50 to 70%

Query block: Fill in the blank: the reported Dmax of `Cc1ncsc1-c1ccc(CNC(=O)[C@@H]2C[C@@H](O)CN2C(=O)[C@@H](NC(=O)N2CC3(CC(N4CCN(c5ccnc(N6CCN7c8cc(-c9ccccc9O)nnc8NC[C@H]7C6)n5)CC4)C3)C2)C(C)(C)C)cc1` is ____.
Result block: 70 to 90%

Query block: Returns the measured Dmax for the input molecule. Input: `C#Cc1ccc(CNC(=O)[C@@H]2C[C@@H](O)CN2C(=O)[C@@H](NC(=O)N2CC3(CC(N4CCC(N5CC6(CC(N7CCN8c9cc(-c%10ccccc%10O)nnc9NC[C@H]8C7)C6)C5)CC4)C3)C2)C(C)(C)C)cc1`
Result block: 70 to 90%

Query block: Entry under review: Cc1ncsc1-c1ccc(CNC(=O)[C@@H]2C[C@@H](O)CN2C(=O)C(c2cc(OCCCN3CCC(c4cnc(N5CCN6c7cc(-c8ccccc8O)nnc7NCC6C5)nc4)CC3)no2)C(C)C)cc1 (stereo in doubt) . Reported Dmax?
Result block: > 90%

Query block: Reported Dmax, molecule C#Cc1ccc([C@H](C)NC(=O)[C@@H]2C[C@@H](O)CN2C(=O)[C@@H](c2cc(OCCN3CCC(N4CCC(N5CCC(CN6CCN7c8cc(-c9ccccc9O)nnc8NC[C@H]7C6)CC5)CC4)CC3)no2)C(C)C)cc1 (single isomer, unassigned) : ____
Result block: < 50%

Query block: Which value of Dmax has been reported for Cc1ncsc1-c1ccc(CNC(=O)[C@@H]2C[C@@H](O)CN2C(=O)C(c2cc(N3CC4(CCC(N5CCC(c6cnc(N7CCc8[nH]c9nnc(-c%10ccccc%10O)cc9c8[C@H]7C)nc6)CC5)CC4)C3)no2)C(C)C)cc1 (single isomer, unassigned) in the records?
Result block: > 90%

Query block: Which Dmax reading was recorded for the molecule Cc1ncsc1-c1ccc(CNC(=O)[C@@H]2C[C@@H](O)CN2C(=O)[C@@H](NC(=O)[C@H]2CCC3(CC2)C[C@H](N2CCN(c4cnc(N5CCc6[nH]c7nnc(-c8ccccc8O)cc7c6[C@H]5C)nc4)CC2)C3)C(C)(C)C)cc1 (single isomer, unassigned) ?
Result block: 50 to 70%

Query block: Give its Dmax value. Item: `C#Cc1ccc(CNC(=O)[C@@H]2C[C@@H](O)CN2C(=O)[C@@H](NC(=O)N2CC3(CN(CC4CCN(c5cnc(N6CCc7[nH]c8nnc(-c9ccccc9O)cc8c7[C@@H]6C)nc5)CC4)C3)C2)C(C)(C)C)cc1`
Result block: 70 to 90%

====

- Tested target: SMARCA4 (Homo sapiens)
- Construct: SMARCA2/SMARCA4 protein degradation selectivity in MV4-11 cells; endogenous in cells; host or cells: MV4-11
- Assay info: SMARCA4 Western blot degradation in MV4-11 cells
- Type: cell-based
- Measurement parameters: MV4-11, MV4-11 cells, 24 h; read-out: SMARCA4 MSD MV411 degradation 24 h: average Dmax %
Measured quantity: Dmax

Query block: Reported Dmax, compound Cc1ncsc1-c1ccc(CNC(=O)[C@@H]2C[C@@H](O)CN2C(=O)[C@@H](NC(=O)C2(F)CC2)C(C)(C)C)c(OCCCCN2CCC(c3cnc(N4CCN5c6cc(-c7ccccc7O)nnc6NC[C@H]5C4)nc3)CC2)c1 (single isomer, unassigned) [I-49] : ____
Result block: > 90%

====

Quick list: DC50 per entry.
- Tested target: SMARCA2 (Homo sapiens)
- Assay info: SMARCA2 Western blot degradation in MV4-11 cells
- Format: cell-based
- Design: SMARCA2/SMARCA4 protein degradation selectivity in MV4-11 cells; endogenous in cells; host or cells: MV4-11
- Measurement parameters: MV4-11 cells, 24 h; read-out: SMARCA2 MSD MV411 degradation 24 h: Mean external-Abs DC50

1. C#Cc1ccc(CNC(=O)[C@@H]2C[C@@H](O)CN2C(=O)[C@@H](NC(=O)N2CC3(CC(N4CCC(c5cnc(N6CCc7[nH]c8nnc(-c9ccccc9O)cc8c7[C@H]6C)nc5)CC4)C3)C2)C(C)(C)C)c(OCCO)c1
1 to 10 nM

Lab note: next compound to report on.
Query block: What value of DC50 has been recorded for this entry: C#Cc1ccc(CNC(=O)[C@@H]2C[C@@H](O)CN2C(=O)[C@H](NC(=O)N2CC3(CC(N4CCC(c5cnc(N6CCc7[nH]c8nnc(-c9ccccc9O)cc8c7[C@H]6C)nc5)CC4)C3)C2)C(C)(C)CCOCC(=O)O)cc1 (single isomer, unassigned)
Result block: > 100 nM

====

Some compounds, each annotated with its measured Dmax.
- Tested target: SMARCA2 (Homo sapiens, UniProt P51531)
- Sequence (P51531 whole entry): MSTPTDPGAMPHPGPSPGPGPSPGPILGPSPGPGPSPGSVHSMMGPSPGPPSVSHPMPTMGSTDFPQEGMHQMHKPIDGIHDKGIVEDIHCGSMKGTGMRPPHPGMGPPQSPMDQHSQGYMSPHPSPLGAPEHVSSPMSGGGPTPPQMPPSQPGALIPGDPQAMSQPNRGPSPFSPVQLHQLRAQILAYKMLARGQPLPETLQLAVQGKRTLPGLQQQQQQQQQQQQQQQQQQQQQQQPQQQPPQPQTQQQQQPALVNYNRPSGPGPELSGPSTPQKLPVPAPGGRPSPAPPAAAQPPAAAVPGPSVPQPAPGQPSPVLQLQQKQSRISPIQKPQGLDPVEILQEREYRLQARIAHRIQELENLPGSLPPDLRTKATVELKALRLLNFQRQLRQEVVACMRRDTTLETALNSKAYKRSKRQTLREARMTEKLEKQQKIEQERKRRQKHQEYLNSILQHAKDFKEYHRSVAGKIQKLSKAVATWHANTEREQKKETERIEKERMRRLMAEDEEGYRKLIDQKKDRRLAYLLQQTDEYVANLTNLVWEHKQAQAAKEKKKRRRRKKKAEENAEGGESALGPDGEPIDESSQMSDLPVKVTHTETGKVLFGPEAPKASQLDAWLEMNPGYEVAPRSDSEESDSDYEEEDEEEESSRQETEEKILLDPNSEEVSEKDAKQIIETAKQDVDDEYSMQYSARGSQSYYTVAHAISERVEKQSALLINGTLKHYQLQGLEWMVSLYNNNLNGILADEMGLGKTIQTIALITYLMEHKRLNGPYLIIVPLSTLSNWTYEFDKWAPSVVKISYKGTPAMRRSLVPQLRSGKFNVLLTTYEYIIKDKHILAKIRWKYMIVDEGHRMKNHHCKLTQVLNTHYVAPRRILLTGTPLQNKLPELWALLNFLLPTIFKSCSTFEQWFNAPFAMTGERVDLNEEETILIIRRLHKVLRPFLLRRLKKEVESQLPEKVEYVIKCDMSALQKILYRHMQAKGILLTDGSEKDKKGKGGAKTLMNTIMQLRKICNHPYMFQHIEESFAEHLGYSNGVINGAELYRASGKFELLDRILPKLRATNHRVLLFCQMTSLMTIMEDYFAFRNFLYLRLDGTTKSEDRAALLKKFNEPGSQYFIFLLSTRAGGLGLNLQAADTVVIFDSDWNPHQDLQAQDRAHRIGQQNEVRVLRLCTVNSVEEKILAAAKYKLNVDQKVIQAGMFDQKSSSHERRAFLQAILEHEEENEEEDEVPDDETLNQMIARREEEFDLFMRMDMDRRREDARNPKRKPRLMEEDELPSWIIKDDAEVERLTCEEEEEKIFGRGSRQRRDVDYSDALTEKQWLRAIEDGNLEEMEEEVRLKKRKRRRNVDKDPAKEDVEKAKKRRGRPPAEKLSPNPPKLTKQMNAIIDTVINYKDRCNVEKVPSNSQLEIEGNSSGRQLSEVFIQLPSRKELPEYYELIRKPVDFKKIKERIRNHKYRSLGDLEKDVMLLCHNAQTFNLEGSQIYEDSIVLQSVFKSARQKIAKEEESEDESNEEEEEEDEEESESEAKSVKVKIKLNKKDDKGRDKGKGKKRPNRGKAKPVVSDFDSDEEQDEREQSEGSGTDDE
- Assay info: SMARCA2 Western blot degradation in MV4-11 cells
- Format: cell-based
- Parameters: SMARCA2/SMARCA4 protein degradation selectivity in MV4-11 cells; endogenous in cells; host or cells: MV4-11
- Measurement parameters: MV4-11, MV4-11 cells, 24 h; read-out: SMARCA2 MSD MV411 degradation 24 h: average Dmax %

Known results for compounds:
1) Cc1ncsc1-c1ccc(CNC(=O)[C@@H]2C[C@@H](O)CN2C(=O)[C@@H](NC(=O)[C@H]2CC3(C2)C[C@H](N2CCC(c4ccnc(N5CCN6c7cc(-c8ccccc8O)nnc7NC[C@@H]6C5)n4)CC2)C3)C(C)(C)C)cc1 (single isomer, unassigned) [I-3]
70 to 90%
2) Cc1ncsc1-c1ccc(CNC(=O)[C@@H]2C[C@@H](O)CN2C(=O)[C@@H](NC(=O)N2CC3(CC(N4CCN(c5cnc(N6CCc7[nH]c8nnc(-c9ccccc9O)cc8c7[C@H]6C)nc5)CC4)C3)C2)C(C)(C)C)cc1 [I-82]
> 90%
3) C#Cc1ccc(CNC(=O)[C@@H]2C[C@@H](O)CN2C(=O)[C@@H](NC(=O)N2CC3(CC(N4CCC(c5cnc(N6CCc7[nH]c8nnc(-c9ccccc9O)cc8c7[C@@H]6CO)nc5)CC4)C3)C2)C(C)(C)C)cc1 [I-147]
> 90%

Query block: Provide value of Dmax for this record tested with SMARCA2 (Homo sapiens, UniProt P51531): Cc1ncsc1-c1ccc(CNC(=O)[C@@H]2C[C@@H](O)CN2C(=O)[C@@H](NC(=O)N2CC3(CC(N4CCC(c5cnc(N6CCN7c8cc(-c9ccccc9O)nnc8NC[C@H]7C6)nc5)CC4)C3)C2)C(C)(C)C)cc1 [I-64]
Result block: > 90%

====

Some molecules, each annotated with its measured Dmax.
- Tested target: SMARCA4 (Homo sapiens, UniProt P51532)
- Construct: SMARCA2/SMARCA4 protein degradation selectivity in MV4-11 cells; endogenous in cells; host or cells: MV4-11
- Sequence (P51532 whole entry): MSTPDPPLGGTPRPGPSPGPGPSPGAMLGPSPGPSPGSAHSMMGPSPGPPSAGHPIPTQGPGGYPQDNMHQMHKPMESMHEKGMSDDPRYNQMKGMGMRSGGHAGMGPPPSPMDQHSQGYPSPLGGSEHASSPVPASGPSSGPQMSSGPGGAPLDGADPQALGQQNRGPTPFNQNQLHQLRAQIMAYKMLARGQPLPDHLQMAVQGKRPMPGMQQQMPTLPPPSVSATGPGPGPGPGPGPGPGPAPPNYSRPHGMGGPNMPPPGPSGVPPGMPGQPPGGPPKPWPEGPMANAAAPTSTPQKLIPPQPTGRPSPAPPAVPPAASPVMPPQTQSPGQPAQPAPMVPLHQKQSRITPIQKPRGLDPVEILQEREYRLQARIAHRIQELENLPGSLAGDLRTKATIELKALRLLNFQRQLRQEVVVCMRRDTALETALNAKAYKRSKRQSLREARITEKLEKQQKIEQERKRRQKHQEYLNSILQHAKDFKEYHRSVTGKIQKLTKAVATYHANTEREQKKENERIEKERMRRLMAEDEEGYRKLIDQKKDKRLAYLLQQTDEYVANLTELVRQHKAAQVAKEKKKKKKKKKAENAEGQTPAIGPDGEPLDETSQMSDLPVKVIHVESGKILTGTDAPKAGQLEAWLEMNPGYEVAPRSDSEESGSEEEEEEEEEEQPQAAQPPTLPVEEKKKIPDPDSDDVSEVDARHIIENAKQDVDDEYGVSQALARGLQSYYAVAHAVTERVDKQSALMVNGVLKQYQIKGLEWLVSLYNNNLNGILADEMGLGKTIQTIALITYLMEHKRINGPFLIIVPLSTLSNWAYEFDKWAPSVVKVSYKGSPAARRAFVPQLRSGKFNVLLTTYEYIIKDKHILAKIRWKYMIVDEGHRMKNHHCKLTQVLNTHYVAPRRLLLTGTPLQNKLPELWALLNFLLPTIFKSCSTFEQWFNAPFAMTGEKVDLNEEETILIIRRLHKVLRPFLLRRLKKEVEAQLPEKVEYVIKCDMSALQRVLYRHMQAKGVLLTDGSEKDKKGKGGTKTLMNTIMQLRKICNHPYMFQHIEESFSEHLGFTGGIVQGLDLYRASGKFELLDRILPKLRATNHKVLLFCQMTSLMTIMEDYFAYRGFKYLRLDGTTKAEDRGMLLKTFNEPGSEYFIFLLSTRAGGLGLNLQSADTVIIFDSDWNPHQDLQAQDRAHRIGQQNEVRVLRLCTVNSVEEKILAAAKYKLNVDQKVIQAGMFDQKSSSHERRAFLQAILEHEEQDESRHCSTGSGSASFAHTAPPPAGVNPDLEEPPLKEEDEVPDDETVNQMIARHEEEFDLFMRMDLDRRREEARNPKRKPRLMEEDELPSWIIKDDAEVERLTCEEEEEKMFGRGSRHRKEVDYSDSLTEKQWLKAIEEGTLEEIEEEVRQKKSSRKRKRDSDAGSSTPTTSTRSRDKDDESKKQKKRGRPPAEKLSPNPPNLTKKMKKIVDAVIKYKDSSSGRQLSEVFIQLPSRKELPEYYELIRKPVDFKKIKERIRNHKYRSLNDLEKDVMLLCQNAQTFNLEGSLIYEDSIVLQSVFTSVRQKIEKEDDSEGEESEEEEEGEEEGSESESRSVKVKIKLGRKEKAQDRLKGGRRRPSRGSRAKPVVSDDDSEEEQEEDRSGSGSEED
- Assay info: SMARCA4 Western blot degradation in MV4-11 cells
- Format: cell-based
- Measurement parameters: MV4-11, MV4-11 cells, 24 h; read-out: SMARCA4 MSD MV411 degradation 24 h: average Dmax %

Guide cases for Dmax, answers given:
1) Cc1ncsc1-c1ccc(CNC(=O)[C@@H]2C[C@@H](O)CN2C(=O)[C@@H](NC(=O)[C@H]2CCC3(CC2)C[C@H](N2CCC(c4ccc(N5CCN6c7cc(-c8ccccc8O)nnc7NC[C@H]6C5)nc4)CC2)C3)C(C)(C)C)cc1 (some centres unmarked)
< 50%
2) C#Cc1ccc([C@H](C)NC(=O)[C@@H]2C[C@@H](O)CN2C(=O)[C@@H](NC(=O)[C@H]2CCC3(CC2)C[C@H](N2CCC(c4cnc(N5CCN6c7cc(-c8ccccc8O)nnc7NC[C@H]6C5)nc4)CC2)C3)C(C)(C)C)cc1 (single isomer, unassigned)
50 to 70%
3) C#Cc1ccc(CNC(=O)[C@@H]2C[C@@H](O)CN2C(=O)[C@@H](NC(=O)N2CCN(CC3CCN(c4cnc(N5CCN6c7cc(-c8ccccc8O)nnc7NC[C@H]6C5)nc4)CC3)CC2)C(C)(C)C)cc1
50 to 70%

Okay, next one:
Query block: If you can, please state the reported Dmax value of Cc1ncsc1-c1ccc(CNC(=O)[C@@H]2C[C@@H](O)CN2C(=O)C(c2cc(N3CC4(CCC(N5CCC(c6cnc(N7CCc8[nH]c9nnc(-c%10ccccc%10O)cc9c8[C@H]7C)nc6)CC5)CC4)C3)no2)C(C)C)cc1 (single isomer, unassigned) .
Result block: > 90%
